B1: PRKX (parent)
chain: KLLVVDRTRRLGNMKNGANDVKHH

- Variants of: B1
- procedure.details: protein stability index of a GFP-peptide fusion (GPS, HEK-293T) (PSI 1-6); higher = more stable;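 note: lentivirally expressed fusions sorted by FACS into six bins by GFP to DsRed ratio, PSI derived from sequencing read proportions per bin multiplied by bin number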
- test.parameters: c terminus: a fixed tail appended
measured.property: protein stability index
Lab note: record just the number, no unit beside it.

Some variants with known protein stability index results, for comparison:
- construct.sequence: "KLLVVDRTRRLGNMSNGANDVKHH"
  measured.property: "protein stability index"
  test.value: 3.47
- construct.sequence: "KLLVVDRTRRLGNMKNGANDVWHH"
  measured.property: "protein stability index"
  test.value: 2.13
- construct.sequence: "KLLVVDRTRRLGNTKNGANDVKHH"
  measured.property: "protein stability index"
  test.value: 3

In plain terms, `KLLVVDRTRRLGNMKNGANDYKHH` has a documented protein stability index of 2.34

Noted for `KLLVVDRTRRLGAMKNGANDVKHH` : its protein stability index reads 3.44

The value of protein stability index measured for the variant `KLLVVDRTRDLGNMKNGANDVKHH` turned out to be 3.68

Measured protein stability index, `KLLVVDRTRRLYNMKNGANDVKHH` : 2.5

Documented protein stability index of `KLLVVDRTRRLGNMKNGANDVKPH` : 3.37

Lab note: measured protein stability index of `KLLVVDRSRRLGNMKNGANDVKHH` was 2.67

For record `KLLVVGRTRRLGNMKNGANDVKHH` the listed protein stability index is 2.29

Entry under test: `KLLVVDRTRRLGNAKNGANDVKHH` . Its protein stability index was 3.4
